- Test system: RXF 393 renal
- run_description: NCI tumour cell line growth inhibition, 48 h
Reported TGI by item:
experimental_endpoint: TGI

compound=O=C1Cc2cc(CCn3cncn3)c(Cl)cc2N1 experimental_endpoint=TGI value_observed="> 100 µM"
compound="CC1C[C@]2(C[C@@H](C)C(=O)O2)OC2CC3(C)C4CCC5C(C)(C)OC(=O)CC[C@@]56C[C@@]46CC[C@]3(C)C12 (stereo partly drawn)" experimental_endpoint=TGI value_observed="> 100 µM"
compound=Cc1ccc(/C=C/C(=O)c2sc(-n3nc(-c4ccccc4)cc3-c3ccccc3)nc2C)cc1 experimental_endpoint=TGI value_observed="> 100 µM"
